Data provenance is PubChem BioAssay (EPA / NIEHS).

Assay: ATG_VDRE_CIS: Attagene CIS-FACTORIAL HepG2 Assay for human Vitamin D Receptor Element (VDRE) (AID 2282968)
Conditions: HepG2 VDRE cis-reporter transcription, actives raise or lower the signal
Procedure: ATG_CIS is a cell-based, multiplexed-readout assay that uses HepG2, a human liver cell line, with measurements taken at 24 hours after chemical dosing in a 24-well plate.ATG_VDRE_CIS is one of 52 assay component(s) measured or calculated from the ATG_CIS assay. […] This assay endpoint, ATG_VDRE_CIS, was analyzed with bidirectional fitting relative to DMSO as the negative control and baseline of activity. […]
Calls of active or inactive are those of the source. Rule for the calls: active = hit-call score of the fitted dose curve at least 0.9, where 1 is the maximum; inactive = score below 0.9.
Classes used: active, inactive

[
  {
    "Compound": "NCCOCCOCCN",
    "Category label": "inactive"
  },
  {
    "Compound": "CN(C)C(=O)NC1(c2ccccc2)CCN(CC[C@@]2(c3ccc(F)c(F)c3)CN(C(=O)c3ccccc3)CCO2)CC1",
    "Category label": "active"
  },
  {
    "Compound": "CCc1cc(C2=C(C(=O)O)N(c3ccccc3C(F)(F)F)S(=O)(=O)c3ccccc32)cc2c1OCO2",
    "Category label": "active"
  },
  {
    "Compound": "CCC(C)N(C)C(=O)c1cc2ccccc2c(-c2ccccc2Cl)n1 (configuration not stated)",
    "Category label": "active"
  },
  {
    "Compound": "O=C(N[C@@H](c1ccccc1)[C@@H]1CCCCN1)c1cccc(C(F)(F)F)c1Cl",
    "Category label": "active"
  },
  {
    "Compound": "CC(C)NCC(O)c1ccc(O)c(O)c1 (configuration not stated)",
    "Category label": "inactive"
  },
  {
    "Compound": "O=C(O)CN(CC(=O)O)CC(=O)O",
    "Category label": "inactive"
  },
  {
    "Compound": "NC1CCCCC1",
    "Category label": "inactive"
  },
  {
    "Compound": "CSc1ccc(Oc2ccc(S(N)(=O)=O)cc2CN(C)C)cc1C",
    "Category label": "active"
  },
  {
    "Compound": "CCCCCCCCCCCCCCOS(=O)(=O)O",
    "Category label": "inactive"
  },
  {
    "Compound": "O=[Si]=O",
    "Category label": "inactive"
  },
  {
    "Compound": "C=CCc1ccc(OC)c(OC)c1",
    "Category label": "inactive"
  }
]

###

Test: CCTE_Shafer_MEA_acute_per_burst_spike_number_mean: CCTE's Neural Acute Assay for Average Number of Spikes Per Burst, Shafer Lab (AID 2284015);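 note: hits are decreases in mean spikes per burst versus baseline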
Calls of active or inactive are those of the source. Rule for the calls: active = hit-call score of the fitted dose curve at least 0.9, where 1 is the maximum; inactive = score below 0.9.
Classes used: active, inactive

[
  {
    "Compound": "CCCCC(CC)COP(=O)(OCC(CC)CCCC)OCC(CC)CCCC (configuration not stated)",
    "Category label": "inactive"
  },
  {
    "Compound": "CC(C)NCC(O)c1ccc(O)c(O)c1 (configuration not stated)",
    "Category label": "inactive"
  },
  {
    "Compound": "CCCC(=O)O",
    "Category label": "inactive"
  },
  {
    "Compound": "C/C=C/c1ccc(OC)cc1",
    "Category label": "inactive"
  },
  {
    "Compound": "Cc1cc(SC2=C(O)C[C@@](CCc3ccc(N)cc3)(C(C)C)OC2=O)c(C(C)(C)C)cc1CO",
    "Category label": "inactive"
  },
  {
    "Compound": "COc1ccc(OC(F)(F)F)cc1CN[C@H]1CCCN[C@H]1c1ccccc1",
    "Category label": "active"
  },
  {
    "Compound": "CCN(CC)CCOc1ccc(C(=C(Cl)c2ccccc2)c2ccccc2)cc1",
    "Category label": "inactive"
  },
  {
    "Compound": "CC(C)COC(=O)CCCCC(=O)OCC(C)C",
    "Category label": "inactive"
  },
  {
    "Compound": "CN(C)CCCN1c2ccccc2Sc2ccc(Cl)cc21",
    "Category label": "inactive"
  },
  {
    "Compound": "Cc1cc(Cc2ccc(N)c(C)c2)ccc1N",
    "Category label": "active"
  },
  {
    "Compound": "COC(=O)[C@H]1[C@H]2C[C@@H]3c4[nH]c5cc(OC)ccc5c4CCN3C[C@H]2C[C@@H](OC(=O)c2cc(OC)c(OC)c(OC)c2)[C@@H]1OC",
    "Category label": "active"
  },
  {
    "Compound": "CSc1ccc(Oc2ccc(S(N)(=O)=O)cc2CN(C)C)cc1C",
    "Category label": "active"
  }
]
